- target-of-assay: Cholinesterase (Equus caballus, UniProt P81908)
- Sequence (P81908 whole entry): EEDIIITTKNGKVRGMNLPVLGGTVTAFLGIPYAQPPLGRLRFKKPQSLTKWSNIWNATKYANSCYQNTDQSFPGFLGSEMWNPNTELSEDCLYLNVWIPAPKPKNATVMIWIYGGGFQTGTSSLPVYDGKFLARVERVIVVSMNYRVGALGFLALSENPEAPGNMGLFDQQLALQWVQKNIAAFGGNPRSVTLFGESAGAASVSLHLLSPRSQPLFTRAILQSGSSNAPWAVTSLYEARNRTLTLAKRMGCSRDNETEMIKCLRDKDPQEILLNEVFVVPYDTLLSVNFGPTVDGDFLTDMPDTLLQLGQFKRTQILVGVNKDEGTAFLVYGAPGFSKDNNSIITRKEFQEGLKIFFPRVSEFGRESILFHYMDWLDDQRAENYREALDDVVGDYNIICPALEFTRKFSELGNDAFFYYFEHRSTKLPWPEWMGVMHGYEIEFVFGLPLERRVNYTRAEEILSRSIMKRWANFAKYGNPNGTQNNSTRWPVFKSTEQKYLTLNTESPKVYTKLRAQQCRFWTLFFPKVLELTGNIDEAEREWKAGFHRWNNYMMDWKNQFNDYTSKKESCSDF
- assay-summary: Inhibition of equine serum BuChE using butyrylthiocholine chloride as substrate after 15 mins by Ellman's method
observable: pIC50
When answering, recall that pIC50 equals minus log10 of the concentration in mol/L, and write that number alone.

Previously resolved entries follow.
smiles-input: CC(C)N1CCN(CCCCOc2ccc3c(c2)NC(=O)CC3)CC1
pIC50: 5.35
//
smiles-input: O=C1CCc2ccc(OCCCCCCN3CCN(c4ccccn4)CC3)cc2N1
pIC50: 5.39
//
smiles-input: C#CCN(CCCCCOc1ccc2c(c1)NC(=O)CC2)Cc1ccccc1
pIC50: 5.15
//
smiles-input: O=C1CCc2ccc(OCCCCN3CCN(Cc4ccccc4)CC3)cc2N1
pIC50: 4.97
//
smiles-input: O=C1CCc2ccc(OCCCCCCN3CCC(N4CCCC4)CC3)cc2N1
pIC50: 4.49

pIC50 reading for "C#CCN(CCCCOc1ccc2c(c1)NC(=O)CC2)Cc1ccccc1" : 4.72

pIC50 reading for "CC(C)N1CCN(CCCCCCOc2ccc3c(c2)NC(=O)CC3)CC1" : 5.70

pIC50 reading for "O=C1CCc2ccc(OCCCN3CCN(Cc4ccccc4)CC3)cc2N1" : 4.71

pIC50 reading for "O=C1CCc2ccc(OCCCCCCN3CCCC3)cc2N1" : 6.06

pIC50 reading for "C#CCN(CCCOc1ccc2c(c1)NC(=O)CC2)Cc1ccccc1" : 4.53

----------
Record type: IC50 measurement. Applies to: Acetylcholinesterase (Electrophorus electricus)
Field: numeric (µM). Do not append units.

Previously resolved entries follow.
smiles-input: O=C1CCc2ccc(OCCCCCN3CCN(c4ccccn4)CC3)cc2N1
target-of-assay: Acetylcholinesterase (Electrophorus electricus)
Sequence (O42275 whole entry): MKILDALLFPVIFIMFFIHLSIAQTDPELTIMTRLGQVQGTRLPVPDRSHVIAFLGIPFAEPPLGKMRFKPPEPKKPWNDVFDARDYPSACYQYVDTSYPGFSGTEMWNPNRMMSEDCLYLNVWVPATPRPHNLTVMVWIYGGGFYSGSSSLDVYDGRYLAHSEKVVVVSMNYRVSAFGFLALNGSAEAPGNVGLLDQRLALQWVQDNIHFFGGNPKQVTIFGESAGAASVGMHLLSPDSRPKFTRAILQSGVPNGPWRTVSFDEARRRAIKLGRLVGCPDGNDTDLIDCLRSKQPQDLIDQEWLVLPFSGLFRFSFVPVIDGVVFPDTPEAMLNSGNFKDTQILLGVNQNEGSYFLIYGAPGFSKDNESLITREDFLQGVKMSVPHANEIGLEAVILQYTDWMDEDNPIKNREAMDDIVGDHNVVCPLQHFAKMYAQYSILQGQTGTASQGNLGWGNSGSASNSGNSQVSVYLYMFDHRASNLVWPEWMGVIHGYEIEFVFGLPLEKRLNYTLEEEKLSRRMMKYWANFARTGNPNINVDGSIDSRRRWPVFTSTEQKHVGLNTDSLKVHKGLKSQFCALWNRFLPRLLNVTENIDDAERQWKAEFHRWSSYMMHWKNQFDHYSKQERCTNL
IC50 (µM): 15.6
//
smiles-input: O=C1CCc2ccc(OCCCCCN3CCc4ccccc4C3)cc2N1
target-of-assay: Acetylcholinesterase (Electrophorus electricus)
IC50 (µM): 9.1
//
smiles-input: O=C1CCc2ccc(OCCCCCCN3CCC(Cc4ccccc4)CC3)cc2N1
target-of-assay: Acetylcholinesterase (Electrophorus electricus)
IC50 (µM): 0.56
//
smiles-input: O=C1CCc2ccc(OCCCCN3CCc4ccccc4C3)cc2N1
target-of-assay: Acetylcholinesterase (Electrophorus electricus)
IC50 (µM): 10.1
//
smiles-input: O=C1CCc2ccc(OCCCCCN3CCN(Cc4ccccc4)CC3)cc2N1
target-of-assay: Acetylcholinesterase (Electrophorus electricus)
IC50 (µM): 10

IC50 reading for "O=C1CCc2ccc(OCCCCCCN3CCN(c4ccccn4)CC3)cc2N1" : 19.1

----------
- assay-summary: Inhibition of rat serum BuChE using butyrylthiocholine chloride as substrate after 15 mins by Ellman's method
observable: log10 of IC50 (log10 of the value in µM)
In plain terms, each number is the log10 of measured IC50 in µM.

smiles-input: O=C1CCc2ccc(OCCCCN3CCc4ccccc4C3)cc2N1
endpoint-result: 1.09

smiles-input: CC(C)N1CCN(CCCOc2ccc3c(c2)NC(=O)CC3)CC1
endpoint-result: 1.01

log10 of IC50 reading for "CCN(CC)CCCCOc1ccc2c(c1)NC(=O)CC2" : 0.98

log10 of IC50 reading for "O=C1CCc2ccc(OCCCCCCN3CCCC3)cc2N1" : 0.93

log10 of IC50 reading for "O=C1CCc2ccc(OCCCN3CCN(Cc4ccccc4)CC3)cc2N1" : 1.53

log10 of IC50 reading for "CC(C)N1CCN(CCCCOc2ccc3c(c2)NC(=O)CC3)CC1" : 0.57

log10 of IC50 reading for "O=C1CCc2ccc(OCCCCCCN3CCC(Cc4ccccc4)CC3)cc2N1" : 0.56

log10 of IC50 reading for "O=C1CCc2ccc(OCCCCCN3CCN(Cc4ccccc4)CC3)cc2N1" : 1.47

log10 of IC50 reading for "O=C1CCc2ccc(OCCCCCCN3CCN(Cc4ccccc4)CC3)cc2N1" : 1.38

log10 of IC50 reading for "CC(C)N1CCN(CCCCCCOc2ccc3c(c2)NC(=O)CC3)CC1" : 0.26

log10 of IC50 reading for "O=C1CCc2ccc(OCCCN3CCN(c4ccccn4)CC3)cc2N1" : 1.59

log10 of IC50 reading for "O=C1CCc2ccc(OCCCN3CCc4ccccc4C3)cc2N1" : 1.10

----------
- assay-summary: Selectivity index, ratio of IC50 for equine serum BuChE to IC50 for electric eel AChE
observable: Ratio IC50
# print the numeric value only

Previously resolved entries follow.
smiles-input: O=C1CCc2ccc(OCCCCCCN3CCC(Cc4ccccc4)CC3)cc2N1
observable: Ratio IC50
endpoint-result: 4.1

smiles-input: O=C1CCc2ccc(OCCCCCN3CCCCC3)cc2N1
observable: Ratio IC50
endpoint-result: 2.6

smiles-input: C#CCN(CCCCCOc1ccc2c(c1)NC(=O)CC2)Cc1ccccc1
observable: Ratio IC50
endpoint-result: 0.4

smiles-input: O=C1CCc2ccc(OCCCN3CCC(N4CCCC4)CC3)cc2N1
observable: Ratio IC50
endpoint-result: 6.9

smiles-input: O=C1CCc2ccc(OCCCN3CCc4ccccc4C3)cc2N1
observable: Ratio IC50
endpoint-result: 0.4

smiles-input: CCN(CC)CCCCOc1ccc2c(c1)NC(=O)CC2
observable: Ratio IC50
endpoint-result: 1.5

smiles-input: CC(C)N1CCN(CCCCCOc2ccc3c(c2)NC(=O)CC3)CC1
observable: Ratio IC50
endpoint-result: 3.5

smiles-input: CC(C)N1CCN(CCCOc2ccc3c(c2)NC(=O)CC3)CC1
observable: Ratio IC50
endpoint-result: 3.3

smiles-input: O=C1CCc2ccc(OCCCCCN3CCN(c4ccccn4)CC3)cc2N1
observable: Ratio IC50
endpoint-result: 0.4

smiles-input: C#CCN(CCCCCCOc1ccc2c(c1)NC(=O)CC2)Cc1ccccc1
observable: Ratio IC50
endpoint-result: 0.2

Ratio IC50 reading for "O=C1CCc2ccc(OCCCCN3CCN(Cc4ccccc4)CC3)cc2N1" : 1.8

Ratio IC50 reading for "O=C1CCc2ccc(OCCCCCCN3CCCCC3)cc2N1" : 0.8

Ratio IC50 reading for "C#CCN(CCCCOc1ccc2c(c1)NC(=O)CC2)Cc1ccccc1" : 0.9

Ratio IC50 reading for "O=C1CCc2ccc(OCCCCN3CCc4ccccc4C3)cc2N1" : 0.4

Ratio IC50 reading for "O=C1CCc2ccc(OCCCCCCN3CCN(Cc4ccccc4)CC3)cc2N1" : 0.5

----------
- target-of-assay: Amine oxidase [flavin-containing] B (Homo sapiens, UniProt P27338)
- Sequence (P27338 whole entry): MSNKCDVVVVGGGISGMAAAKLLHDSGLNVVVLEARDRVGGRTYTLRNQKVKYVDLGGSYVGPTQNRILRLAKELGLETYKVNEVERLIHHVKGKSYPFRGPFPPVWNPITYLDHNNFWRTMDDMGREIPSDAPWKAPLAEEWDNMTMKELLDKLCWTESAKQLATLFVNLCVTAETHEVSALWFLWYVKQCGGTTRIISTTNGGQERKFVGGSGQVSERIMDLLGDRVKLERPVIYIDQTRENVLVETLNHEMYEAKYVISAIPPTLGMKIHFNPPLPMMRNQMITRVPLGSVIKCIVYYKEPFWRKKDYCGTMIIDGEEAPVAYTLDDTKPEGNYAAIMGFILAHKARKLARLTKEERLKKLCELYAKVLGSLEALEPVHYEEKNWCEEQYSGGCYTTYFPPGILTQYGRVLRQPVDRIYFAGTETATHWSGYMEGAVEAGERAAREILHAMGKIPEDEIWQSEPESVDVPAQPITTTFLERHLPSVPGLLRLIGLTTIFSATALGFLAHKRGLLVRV
- assay-summary: biochemical
- Description: Inhibition of recombinant human MAO-B expressed in baculovirus infected BTI insect cells using kynuramine as substrate after 30 mins by fluorescence assay
observable: pIC50
When answering, recall that pIC50 equals minus log10 of the concentration in mol/L, and write that number alone.

smiles-input: C#CCN(CCCCOc1ccc2c(c1)NC(=O)CC2)Cc1ccccc1
endpoint-result: 5.04
--
smiles-input: CCN(CC)CCCCCCOc1ccc2c(c1)NC(=O)CC2
endpoint-result: 5.07
--
smiles-input: O=C1CCc2ccc(OCCCCN3CCN(c4ccccn4)CC3)cc2N1
endpoint-result: 5.00
--
smiles-input: O=C1CCc2ccc(OCCCCCCN3CCc4ccccc4C3)cc2N1
endpoint-result: 5.36
--
smiles-input: C#CCN(CCCOc1ccc2c(c1)NC(=O)CC2)Cc1ccccc1
endpoint-result: 5.14

pIC50 reading for "O=C1CCc2ccc(OCCCCCN3CCN(c4ccccn4)CC3)cc2N1" : 4.69

pIC50 reading for "CCN(CC)CCCOc1ccc2c(c1)NC(=O)CC2" : 4.73

pIC50 reading for "CC(C)N1CCN(CCCOc2ccc3c(c2)NC(=O)CC3)CC1" : 4.58

pIC50 reading for "O=C1CCc2ccc(OCCCCCN3CCCCC3)cc2N1" : 4.77

pIC50 reading for "CCN(CC)CCCCCOc1ccc2c(c1)NC(=O)CC2" : 5.07

pIC50 reading for "C#CCN(CCCCCOc1ccc2c(c1)NC(=O)CC2)Cc1ccccc1" : 5.08

pIC50 reading for "O=C1CCc2ccc(OCCCN3CCN(c4ccccn4)CC3)cc2N1" : 4.74

pIC50 reading for "C#CCN(CCCCCCOc1ccc2c(c1)NC(=O)CC2)Cc1ccccc1" : 5.42

pIC50 reading for "O=C1CCc2ccc(OCCCCCN3CCc4ccccc4C3)cc2N1" : 5.23

----------
# Ratio IC50 listing for each entry below
- Organism: Homo sapiens
- assay-summary: Selectivity index, ratio of IC50 for recombinant human MAO-B to IC50 for recombinant human MAO-A
# print the numeric value only

smiles-input: O=C1CCc2ccc(OCCCCCCN3CCN(c4ccccn4)CC3)cc2N1
Ratio IC50: 2

smiles-input: O=C1CCc2ccc(OCCCCCN3CCCCC3)cc2N1
Ratio IC50: 2

Ratio IC50 reading for "O=C1CCc2ccc(OCCCN3CCC(N4CCCC4)CC3)cc2N1" : 2

----------
# IC50 listing for each entry below
- target-of-assay: Amine oxidase [flavin-containing] A (Homo sapiens)
- Sequence (P21397 whole entry): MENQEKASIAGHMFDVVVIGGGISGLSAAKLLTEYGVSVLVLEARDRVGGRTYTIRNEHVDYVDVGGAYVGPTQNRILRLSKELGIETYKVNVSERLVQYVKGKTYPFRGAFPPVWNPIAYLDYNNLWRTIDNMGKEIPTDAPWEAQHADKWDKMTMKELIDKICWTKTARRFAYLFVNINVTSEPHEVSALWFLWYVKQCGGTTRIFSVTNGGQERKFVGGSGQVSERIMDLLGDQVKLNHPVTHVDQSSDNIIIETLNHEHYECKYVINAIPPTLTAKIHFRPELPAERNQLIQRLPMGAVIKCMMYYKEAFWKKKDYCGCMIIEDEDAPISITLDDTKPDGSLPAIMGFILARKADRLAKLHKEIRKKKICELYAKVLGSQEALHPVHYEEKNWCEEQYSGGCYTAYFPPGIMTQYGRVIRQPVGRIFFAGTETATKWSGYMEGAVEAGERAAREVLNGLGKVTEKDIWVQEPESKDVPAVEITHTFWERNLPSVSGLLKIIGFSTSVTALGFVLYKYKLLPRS
- assay-summary: Inhibition of recombinant human MAO-A expressed in baculovirus infected BTI insect cells using kynuramine as substrate after 30 mins by fluorescence assay
Field: numeric (µM). Do not append units.

Previously resolved entries follow.
smiles-input: CCN(CC)CCCCCCOc1ccc2c(c1)NC(=O)CC2
IC50 / µM: 5.4
--
smiles-input: O=C1CCc2ccc(OCCCCCCN3CCC(Cc4ccccc4)CC3)cc2N1
IC50 / µM: 0.3
--
smiles-input: CCN(CC)CCCCOc1ccc2c(c1)NC(=O)CC2
IC50 / µM: 7.7
--
smiles-input: O=C1CCc2ccc(OCCCN3CCN(Cc4ccccc4)CC3)cc2N1
IC50 / µM: 6.6
--
smiles-input: O=C1CCc2ccc(OCCCCCCN3CCC(N4CCCC4)CC3)cc2N1
IC50 / µM: 6.2
--
smiles-input: O=C1CCc2ccc(OCCCCN3CCN(Cc4ccccc4)CC3)cc2N1
IC50 / µM: 7.4
--
smiles-input: CC(C)N1CCN(CCCCCCOc2ccc3c(c2)NC(=O)CC3)CC1
IC50 / µM: 6.8
--
smiles-input: O=C1CCc2ccc(OCCCCCCN3CCN(c4ccccn4)CC3)cc2N1
IC50 / µM: 5.6

Item: "O=C1CCc2ccc(OCCCCCCN3CCCCC3)cc2N1" | System: Amine oxidase [flavin-containing] A (Homo sapiens) | IC50: 9.4

Item: "O=C1CCc2ccc(OCCCN3CCN(c4ccccn4)CC3)cc2N1" | System: Amine oxidase [flavin-containing] A (Homo sapiens) | IC50: 1.1

Item: "CCN(CC)CCCOc1ccc2c(c1)NC(=O)CC2" | System: Amine oxidase [flavin-containing] A (Homo sapiens) | IC50: 8.4
